Target Of Assay: Neprilysin (Oryctolagus cuniculus, UniProt P08049)
Sequence (P08049 whole entry): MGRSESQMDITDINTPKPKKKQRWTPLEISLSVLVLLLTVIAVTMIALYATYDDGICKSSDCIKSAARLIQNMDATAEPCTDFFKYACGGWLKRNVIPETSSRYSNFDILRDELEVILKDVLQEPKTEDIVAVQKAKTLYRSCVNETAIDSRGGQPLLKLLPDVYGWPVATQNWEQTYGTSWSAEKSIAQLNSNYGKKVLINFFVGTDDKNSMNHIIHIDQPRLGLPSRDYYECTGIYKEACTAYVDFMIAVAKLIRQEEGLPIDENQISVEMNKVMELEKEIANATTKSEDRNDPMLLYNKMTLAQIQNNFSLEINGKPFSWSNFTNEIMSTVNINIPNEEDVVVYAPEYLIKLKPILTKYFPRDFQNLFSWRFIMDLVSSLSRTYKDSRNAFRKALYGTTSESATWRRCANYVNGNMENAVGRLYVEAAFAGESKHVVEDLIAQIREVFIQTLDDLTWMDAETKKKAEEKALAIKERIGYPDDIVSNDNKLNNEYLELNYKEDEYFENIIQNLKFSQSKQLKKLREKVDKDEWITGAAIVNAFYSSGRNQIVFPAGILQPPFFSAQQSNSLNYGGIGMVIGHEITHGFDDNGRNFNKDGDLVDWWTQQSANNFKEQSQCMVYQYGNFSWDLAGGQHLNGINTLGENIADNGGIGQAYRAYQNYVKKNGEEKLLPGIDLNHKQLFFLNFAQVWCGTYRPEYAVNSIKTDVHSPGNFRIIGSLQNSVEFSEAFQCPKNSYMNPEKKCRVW
Assay Info: Inhibition of enkephalinase activity in membranes prepared from rabbit
Parameter Measured: pIC50
Quick note: pIC50 means taking -log10 of the concentration in moles per liter.

Exercise: Can you share its pIC50? I mean this compound: O=C(O)CCCNC(=O)C(Cc1ccccc1)CC(Cc1ccccc1)C(=O)O (stereo not given)
Solution: 7.24

***
Exercise: Any idea what its pIC50 is? The compound is O=C(O)CCCC(=O)NC(Cc1ccccc1)CC(Cc1ccccc1)C(=O)O (stereo not given)
Solution: 7.92

Exercise: Name the recorded pIC50 for O=C(O)CC(=O)NC(Cc1ccccc1)CC(Cc1ccccc1)C(=O)O (stereo not given) .
Solution: 7.21

Exercise: Looking for the measured pIC50 of O=C(O)CCC(=O)NC(Cc1ccccc1)C[C@@H](Cc1ccccc1)C(=O)O (stereo not given in full) , can you help?
Solution: 8.70

Exercise: Which pIC50 reading was recorded for the compound "CC(C)C[C@H](NP(=O)(O)O[C@@H]1O[C@@H](C)[C@H](O)[C@@H](O)[C@H]1O)C(=O)N[C@@H](Cc1c[nH]c2ccccc12)C(=O)O" ?
Solution: 9.40
